Provenance of the data: patent US20220048967A1

- tested system: human GLP-1 receptor (human, UniProt P43220 24-463)
- assay procedure: cell-based or functional assay
# label = T if hGLP1R GTPgS Rel EC50 >= 0.4 nM else F

binder	class
YXEGTXTSDYSILLDKKAQXAFIEYLIEGGPSSG (Aib2, αMeF(2F)6, K17 conjugated to (2-[2-(2-Amino-ethoxy)-ethoxy]-acetyl)2-(γ-Glu)-CO-(CH2)16-CO2H, Aib20, C-terminal amide (NH2)) [Example 302]	F
YXEGTFTSDYSIXLDEKAQXAFIEYLIEGGPSSGAPPPS (Aib2, αMeL13, K17 conjugated to (2-[2-(2-Amino-ethoxy)-ethoxy]-acetyl)2-(γ-Glu)-CO-(CH2)16-CO2H, Aib20, C-terminal amide (NH2)) [Example 323]	T
XXEGTFTSDYSIXLDKKAQXEFIEXLIAGGPSSGAPPPS (D-Tyr1, Aib2, αMeL13, K17 conjugated to (2-[2-(2-Amino-ethoxy)-ethoxy]-acetyl)2-(γ-Glu)-CO-(CH2)18-CO2H, Aib20, αMeY25, C-terminal amide (NH2)) [Example 292]	T
XXEGTFTSDYSIXLDXKAQXEFVEYLIAGGPSSGAPPPS (D-Tyr1, Aib2, αMeL13, Orn16, K17 conjugated to (2-[2-(2-Amino-ethoxy)-ethoxy]-acetyl)2-(γ-Glu)-CO-(CH2)18-CO2H, Aib20, C-terminal amide (NH2)) [Example 359]	T
XXEGTFTSDYSIXLDXKAQXEFIXYLIAGGPSSGAPPPS (D-Tyr1, Aib2, αMeL13, Orn16, K17 conjugated to (2-[2-(2-Amino-ethoxy)-ethoxy]-acetyl)2-(γ-Glu)-CO-(CH2)18-CO2H, Aib20, D-Glu24, C-terminal amide (NH2)) [Example 354]	T
XXEGTFTSDYSIXLDXKAQXAFVEYLIAGGPSSGAPPPS (D-Tyr1, Aib2, αMeL13, Orn16, K17 conjugated to (2-[2-(2-Amino-ethoxy)-ethoxy]-acetyl)2-(γ-Glu)-CO-(CH2)18-CO2H, Aib20, C-terminal amide (NH2)) [Example 358]	T
XXEGTFTSDYSIXLDKKAQXAFIEYLIAGGPSSGAPPPS (not fully specified; D-Tyr1, Aib2, αMeL13, K17 conjugated to (2-[2-(2-Amino-ethoxy)-ethoxy]-acetyl)2-(γ-Glu)-CO-(CH2)18-CO2H, Aib20, C-terminal amide (NH2)) [Example 340]	T
XXEGTFTSDYSIXLDXKAQXAFIEYLIAGGPSSGAPPPS (D-Tyr1, Aib2, αMeL13, Orn16, K17 conjugated to (2-[2-(2-Amino-ethoxy)-ethoxy]-acetyl)2-(γ-Glu)-CO-(CH2)18-CO2H, Aib20, C-terminal amide (NH2)) [Example 346]	T
YXEGTXTSDVSIXLDXKAQXEFIXXLIEGGPSSGAPPPS (Aib2, αMeF(2F)6, αMeL13, Orn16, K17 conjugated to (2-[2-(2-Amino-ethoxy)-ethoxy]-acetyl)2-(γ-Glu)-CO-(CH2)16-CO2H, Aib20, D-Glu24, αMeY25, C-terminal amide (NH2)) [Example 5]	F
YXEGTFTSDYSIXLDEKAQXEFIEYLIAGGPSSGAPPPS (Aib2, αMeL13, K17 conjugated to (2-[2-(2-Amino-ethoxy)-ethoxy]-acetyl)2-(γ-Glu)-CO-(CH2)18-CO2H, Aib20, C-terminal amide (NH2)) [Example 331]	F
